Every entry's value here was drawn from patent US20190119196A1.

- target_desc: human β2-adrenoceptor (Homo sapiens)
- Construct: expressed in transfected cells
- protocol_details: 3H-CGP 12177 whole cell β2 binding
- Experimental: ^3H-CGP 12177 Whole Cell β2 Binding Chinese Hamster Ovary (CHO) cells stably expressing the human β2-adrenoceptor were grown in Dulbecco's modified Eagle's medium nutrient mix F12 (DMEM/F12) containing 10% fetal calf serum and 2 mM L-glutamine in a 37° C. humidified 5% CO2:95% air atmosphere. […] The plate was left overnight in the dark at room temperature, centrifuged (1000 rpm, 1 min) and measured in a MicroBeta2 Microplate Counter (Perkin Elmer) (10 minutes pre-incubation, 2 min counts/well). […]
Where a name gives a salt, the structure may show the parent alone.
outcome_measure: pKi
The value called pKi is obtained by taking minus log10 of the concentration in mol/L.

Below are worked cases with known answers.
CCCCNCC(O)c1cc(Cl)c(N)c(Cl)c1 (stereo not shown) [Example 29, trifluoroacetate] :: 6.50
CCCC(C)NCC(O)c1cc(Cl)c(N)c(Cl)c1 (mixture of isomers) [Example 28, trifluoroacetate] :: 6.40
CCCCNCC(O)c1cc(Cl)c(N)c(C(F)(F)F)c1 (stereo not shown) :: 7.10

Turning now to a further molecule:
(Q) Given CCCC(C)NCC(O)c1cc(Cl)c(N)c(C(F)(F)F)c1 (mixture of isomers) , state its recorded pKi.
(A) 7.50

---

- target_desc: human β2-adrenoceptor (Homo sapiens)
- Construct: expressed in transfected cells
- protocol_details: 3H-CGP 12177 whole cell β2 binding
- run_conditions: CHO cells stably expressing the human β2-adrenoceptor; ~1 nM 3H-CGP 12177; 2 hours at 37° C.; read-out: Biological example 3: -log K (pKi), 3H-CGP 12177 whole cell β2 binding (converted)
Parameter: Ki. Scope: all listed entries.
A number alone suffices; assume µM.

(Q) Given Oc1ccc(C(O)CNCC2CCCCC2)cc1 (stereo not drawn) [Example 6] , state its recorded Ki.
(A) 10

(Q) Similarly, Oc1ccc(C(O)CNC2CCCC2)cc1 (stereo not drawn) [Example 7] ?
(A) 5.01

(Q) Similarly, CCC(C)NCC(O)c1ccc(O)cc1 (stereo not drawn) [Example 5] ?
(A) 5.01

(Q) Similarly, Oc1ccc(C(O)CNCCC2CCCCC2)cc1 (stereo not drawn) [Example 16] ?
(A) 5.01

(Q) Similarly, Oc1ccc(C(O)CNCCCC(F)(F)F)cc1 (stereo not drawn) [Example 24] ?
(A) 10

(Q) Similarly, CCCC(C)NC(C)C(O)c1ccc(O)cc1 (mixture of isomers) [Example 13] ?
(A) 15.8

---

- target_desc: human β2-adrenoceptor (Homo sapiens, UniProt P07550)
- Construct: expressed in transfected cells
- Sequence (P07550 whole entry): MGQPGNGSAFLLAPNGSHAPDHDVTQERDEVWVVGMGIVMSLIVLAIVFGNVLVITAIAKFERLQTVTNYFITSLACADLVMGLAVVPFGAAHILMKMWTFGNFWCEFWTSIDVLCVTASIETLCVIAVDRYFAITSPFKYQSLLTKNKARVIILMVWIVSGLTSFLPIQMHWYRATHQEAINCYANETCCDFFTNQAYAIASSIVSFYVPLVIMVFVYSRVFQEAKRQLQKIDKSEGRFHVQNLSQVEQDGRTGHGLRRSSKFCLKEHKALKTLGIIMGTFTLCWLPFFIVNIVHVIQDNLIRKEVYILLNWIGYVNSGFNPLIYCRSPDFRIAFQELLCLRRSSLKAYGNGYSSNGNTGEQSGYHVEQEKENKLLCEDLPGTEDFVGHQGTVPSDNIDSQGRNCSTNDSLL
- protocol_details: 3H-CGP 12177 whole cell β2 binding
- run_conditions: CHO cells stably expressing the human β2-adrenoceptor; ~1 nM 3H-CGP 12177; 2 hours at 37° C.; read-out: Biological example 3: -log K (pKi), 3H-CGP 12177 whole cell β2 binding (converted)
outcome_measure: Ki (µM)
A number alone suffices; assume µM.

Below are worked cases with known answers.
CCCC(C)NCC(O)c1ccc(Cl)c(O)c1 (mixture of isomers) :: 1
CCCCNC(C)C(O)c1ccc(O)cc1 (stereo not drawn) :: 7.94
CCCCNCC(O)c1ccc(O)c(Cl)c1 (stereo not drawn) :: 3.16
Oc1ccc(C(O)CNCCCC2CC2)cc1 (stereo not drawn) :: 7.94
OC(CNCC1CCCCC1)c1ccccc1 (stereo not drawn) :: 25.1
CCCCCCNCC(O)c1ccc(O)cc1 (stereo not drawn) :: 6.31
CCCC(C)NCC(O)c1ccc(O)cc1 (stereo not drawn) :: 20
CCCCNCC(O)c1ccc(O)cc1 (stereo not drawn) [Example 1, 4-(2-(Butylamino)-1-hydroxyethyl)phenol] :: 25.1

(Q) Param readout= Ki; system= human β2-adrenoceptor (Homo sapiens, UniProt P07550); entry= `CCCCNC[C@H](O)c1ccc(O)cc1` ; returns value.
(A) 39.8

(Q) Similarly, CCCCNCC(O)c1cc(Cl)c(O)c(Cl)c1 (stereo not drawn) ?
(A) 25.1

(Q) Similarly, CCCCNCC(O)c1ccc(Cl)c(N)c1 (stereo not drawn) ?
(A) 3.16

(Q) Similarly, Oc1ccc(C(O)CNCCC2CC2)cc1 (stereo not drawn) ?
(A) 12.6

---

- target_desc: human β2-adrenoceptor (Homo sapiens, UniProt P07550)
- Construct: expressed in transfected cells
- protocol_details: 3H-CGP 12177 whole cell β2 binding
- run_conditions: CHO cells stably expressing the human β2-adrenoceptor; ~1 nM 3H-CGP 12177; 2 hours at 37° C.; read-out: Biological example 3: -log K (pKi), 3H-CGP 12177 whole cell β2 binding (converted)
Parameter: Ki. Scope: all listed entries.
A number alone suffices; assume µM.

(Q) Given CCCCNCC(O)c1ccc(Cl)c(O)c1 (stereo not drawn) , state its recorded Ki.
(A) 6.31

(Q) Similarly, CCCCNCC(O)c1cccc(O)c1 (stereo not drawn) [Example 14, 3-(2-(Butylamino)-1-hydroxyethyl)phenol] ?
(A) 15.8

(Q) Similarly, Oc1ccc(C(O)CNCC2CC2)cc1 (stereo not drawn) ?
(A) 25.1
